Each recorded value in this set is attributed to patent US20020111274A1.

Test system: ORYSAT Rice, Tebonnet
MEASUREMENT_NOTES: Preemergence herbicidal evaluation, ORYSAT
Type: in vivo, Oryza sativa, (L.)
Set-up: scale not given here
MEASUREMENT_CONDITIONS: preemergence, rate 0.032 kg/ha
Overview of reported ORYSAT herbicidal rating across a group of molecules:

[
  {
    "SUBSTANCE_SMILES": "Cc1ccc(O)c(-n2nnc3cc(F)c(-n4c(=O)cc(C(F)(F)F)n(C)c4=O)cc32)c1",
    "ORYSAT herbicidal rating": 0.0
  },
  {
    "SUBSTANCE_SMILES": "Cc1ccc(OCC(=O)O)cc1-n1nnc2cc(F)c(-n3c(=O)cc(C(F)(F)F)n(C)c3=O)cc21",
    "ORYSAT herbicidal rating": 0.0
  },
  {
    "SUBSTANCE_SMILES": "C#CCOC(=O)COc1ccc(C)cc1-n1nnc2cc(F)c(-n3c(=O)cc(C(F)(F)F)n(C)c3=O)cc21",
    "ORYSAT herbicidal rating": 0.0
  },
  {
    "SUBSTANCE_SMILES": "COc1ccc(-n2nnc3cc(F)c(-n4c(=O)cc(C(F)(F)F)n(C)c4=O)cc32)c(C)c1",
    "ORYSAT herbicidal rating": 0.0
  },
  {
    "SUBSTANCE_SMILES": "COc1ccc(C)cc1-n1nnc2cc(F)c(-n3c(=O)cc(C(F)(F)F)n(C)c3=O)cc21",
    "ORYSAT herbicidal rating": 6.0
  },
  {
    "SUBSTANCE_SMILES": "COc1ccccc1-n1nnc2cc(F)c(-n3c(=O)cc(C(F)(F)F)n(C)c3=O)cc21",
    "ORYSAT herbicidal rating": 7.0
  },
  {
    "SUBSTANCE_SMILES": "CCc1ccc(-n2nnc3cc(F)c(-n4c(=O)cc(C(F)(F)F)n(C)c4=O)cc32)cc1",
    "ORYSAT herbicidal rating": 0.5
  },
  {
    "SUBSTANCE_SMILES": "CCc1cccc(-n2nnc3cc(F)c(-n4c(=O)cc(C(F)(F)F)n(C)c4=O)cc32)c1",
    "ORYSAT herbicidal rating": 1.0
  },
  {
    "SUBSTANCE_SMILES": "CC(C)c1ccc(-n2nnc3cc(F)c(-n4c(=O)cc(C(F)(F)F)n(C)c4=O)cc32)cc1",
    "ORYSAT herbicidal rating": 0.0
  },
  {
    "SUBSTANCE_SMILES": "C#CCOC(=O)COc1ccc(C)c(-n2nnc3cc(F)c(-n4c(=O)cc(C(F)(F)F)n(C)c4=O)cc32)c1",
    "ORYSAT herbicidal rating": 0.0
  },
  {
    "SUBSTANCE_SMILES": "COC(=O)COc1ccc(C)cc1-n1nnc2cc(F)c(-n3c(=O)cc(C(F)(F)F)n(C)c3=O)cc21",
    "ORYSAT herbicidal rating": 2.5
  },
  {
    "SUBSTANCE_SMILES": "CCc1ccc(-n2nnc3cc(F)c(-n4c(=O)cc(C(F)(F)F)n(C)c4=O)cc32)cc1COC",
    "ORYSAT herbicidal rating": 0.0
  },
  {
    "SUBSTANCE_SMILES": "CCc1ccccc1-n1nnc2cc(F)c(-n3c(=O)cc(C(F)(F)F)n(C)c3=O)cc21",
    "ORYSAT herbicidal rating": 0.0
  },
  {
    "SUBSTANCE_SMILES": "COc1ccc(Cl)cc1-n1nnc2cc(F)c(-n3c(=O)cc(C(F)(F)F)n(C)c3=O)cc21",
    "ORYSAT herbicidal rating": 1.0
  },
  {
    "SUBSTANCE_SMILES": "COCc1ccccc1-n1nnc2cc(F)c(-n3c(=O)cc(C(F)(F)F)n(C)c3=O)cc21",
    "ORYSAT herbicidal rating": 3.0
  },
  {
    "SUBSTANCE_SMILES": "Cc1ccccc1-n1nnc2cc(F)c(-n3c(=O)cc(C(F)(F)F)n(C)c3=O)cc21",
    "ORYSAT herbicidal rating": 0.0
  }
]
